biological target: TYK2 JH2 domain (Homo sapiens (Human)); experiment: TYK2 JH2 NanoBRET assay; type: binding; conditions: Table 20, read-out: TYK2 IC50
pIC50: −log10 of the molar value.
Kindly supply the reported pIC50 values for the records listed here.

Need pIC50 of "CCC(=O)c1cnc(Nc2ccnc(OCCO)n2)cc1Nc1cccc(-c2ncn(C)n2)c1OC" , thanks.
> 8.30

Need pIC50 of "CCC(=O)c1cnc(Nc2cnc(CN(C)C)cn2)cc1Nc1cccc(-c2ncn(C)n2)c1OC" , thanks.
> 8.30

Need pIC50 of CCC(=O)c1cnc(Nc2ccn([C@H]3C[C@@H](C#N)C3)n2)cc1Nc1cccc(-c2ncn(C)n2)c1OC [Compound 21N] , thanks.
7.30 to 8.30

Need pIC50 of "CCC(=O)c1cnc(Nc2ncc(OCC3COC3)cc2F)cc1Nc1cccc(-c2ncn(C)n2)c1OC" , thanks.
6.30 to 7.30

Need pIC50 of CCC(=O)c1cnc(Nc2ccc(C3(S(C)(=O)=O)CC3)nn2)cc1Nc1cccc(-c2ncn(C)n2)c1OC [Compound 13V] , thanks.
> 8.30

Need pIC50 of CCC(=O)c1cnc(Nc2cnc(OCCN3CC(F)C3)cn2)cc1Nc1cccc(-c2ncn(C)n2)c1OC [Compound 18PP] , thanks.
7.30 to 8.30

Need pIC50 of CCC(=O)c1cnc(Nc2ccn(CCOC)n2)cc1Nc1cccc(-c2ncn(C)n2)c1OC [Compound 21B] , thanks.
7.30 to 8.30

Need pIC50 of "CCC(=O)c1cnc(Nc2cccc(CN3CCOCC3)n2)cc1Nc1cccc(-c2ncn(C)n2)c1OC" , thanks.
> 8.30

Need pIC50 of CCC(=O)c1cnc(Nc2ccc(S(=O)(=O)N3CCOCC3)cn2)cc1Nc1cccc(-c2ncn(C)n2)c1OC [Compound 13E] , thanks.
> 8.30

Need pIC50 of "CCC(=O)c1cnc(Nc2ccc(C(N)=O)cn2)cc1Nc1cccc(-c2ncn(C)n2)c1OC" , thanks.
> 8.30

Need pIC50 of "CCC(=O)c1cnc(Nc2cc(CN3CCOCC3)ccn2)cc1Nc1cccc(-c2ncn(C)n2)c1OC" , thanks.
> 8.30

Need pIC50 of "CCC(=O)c1cnc(Nc2cnc(O[C@@H]3CCN(CC)C3)cn2)cc1Nc1cccc(-c2ncn(C)n2)c1OC" , thanks.
7.30 to 8.30

* * *

molecular target: TYK2 JH2 domain (Homo sapiens (Human), UniProt P29597); assay: TYK2 JH2 NanoBRET assay; type: binding; settings: Table 20, read-out: TYK2 IC50
Sequence (P29597 589-875): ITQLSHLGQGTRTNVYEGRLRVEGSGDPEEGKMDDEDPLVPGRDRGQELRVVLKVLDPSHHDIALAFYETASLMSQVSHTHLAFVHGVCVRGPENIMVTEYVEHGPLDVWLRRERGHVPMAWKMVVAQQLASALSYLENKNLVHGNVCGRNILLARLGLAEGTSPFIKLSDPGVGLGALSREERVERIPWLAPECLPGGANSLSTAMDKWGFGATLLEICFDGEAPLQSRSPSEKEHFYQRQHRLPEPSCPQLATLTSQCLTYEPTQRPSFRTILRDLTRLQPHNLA
Kindly supply the reported IC50 values for the records listed here.

Need IC50 of "CCC(=O)c1cnc(Nc2cc(CNC)ncn2)cc1Nc1cccc(-c2ncn(C)n2)c1OC" , thanks.
5 to 50 nM

Need IC50 of "CCC(=O)c1cnc(Nc2cnc(O[C@H]3CN(C)C[C@H]3F)cn2)cc1Nc1cccc(-c2ncn(C)n2)c1OC" , thanks.
5 to 50 nM

Need IC50 of "CCC(=O)c1cnc(Nc2cc(C(=O)O)ccn2)cc1Nc1cccc(-c2ncn(C)n2)c1OC" , thanks.
≥ 500 nM

Need IC50 of CCC(=O)c1cnc(Nc2ccc(-c3ncn(C)n3)cn2)cc1Nc1nccc(-c2ncn(C)n2)c1OC [Compound 15M] , thanks.
5 to 50 nM

Need IC50 of CCC(=O)c1cnc(Nc2cnc(CS(C)(=O)=O)cn2)cc1Nc1cccc(-c2ncn(C)n2)c1OC [Compound 13U] , thanks.
5 to 50 nM

Need IC50 of COc1c(-c2ncn(C)n2)ccnc1Nc1cc(Nc2ccc(-c3cn(C)cn3)cn2)ncc1C(=O)C1CC1 [Compound 15L] , thanks.
5 to 50 nM

Need IC50 of CCC(=O)c1cnc(Nc2ccc(-c3cn(C)cn3)cn2)cc1Nc1cccc(-c2ncn(C)n2)c1OC [Compound 15B] , thanks.
< 5 nM

Need IC50 of CCC(=O)c1cnc(Nc2cc(-c3cnn(C)c3)ccn2)cc1Nc1cccc(-c2ncn(C)n2)c1OC [Compound 15G] , thanks.
< 5 nM

Need IC50 of "CCC(=O)c1cnc(Nc2ccc([C@H](C)N3CC[C@@H](O)C3)cn2)cc1Nc1cccc(-c2ncn(C)n2)c1OC" , thanks.
< 5 nM

Need IC50 of "CCC(=O)c1cnc(Nc2ccc(CN3CC4(CCOC4)C3)cn2)cc1Nc1cccc(-c2ncn(C)n2)c1OC" , thanks.
< 5 nM

Need IC50 of "CCC(=O)c1cnc(Nc2ccc(CN(C)CC(F)F)cn2)cc1Nc1cccc(-c2ncn(C)n2)c1OC" , thanks.
5 to 50 nM

* * *

pIC50: −log10 of the molar value.
Kindly supply the reported pIC50 values for the records listed here.

// fetch human JAK2 (Homo sapiens (Human), UniProt O60674) pIC50 for CCC(=O)c1cnc(Nc2cc(-c3ncn(C)n3)ccn2)cc1Nc1cccc(-c2ncn(C)n2)c1OC [Compound 15F]
≤ 6.30

// fetch human JAK2 (Homo sapiens (Human), UniProt O60674) pIC50 for "CCC(=O)c1cnc(Nc2ccc(OC3COC3)c(C)n2)cc1Nc1cccc(-c2ncn(C)n2)c1OC"
6.30 to 7.30

// fetch human JAK2 (Homo sapiens (Human), UniProt O60674) pIC50 for CCC(=O)c1cnc(Nc2ccc(S(=O)(=O)CC)cn2)cc1Nc1cccc(-c2ncn(C)n2)c1OC [Compound 13G]
≤ 6.30

// fetch human JAK2 (Homo sapiens (Human), UniProt O60674) pIC50 for "CCC(=O)c1cnc(Nc2ccc(CN3CCS(=O)(=O)CC3)cn2)cc1Nc1cccc(-c2ncn(C)n2)c1OC"
6.30 to 7.30

// fetch human JAK2 (Homo sapiens (Human), UniProt O60674) pIC50 for "CCC(=O)c1cnc(Nc2ccc([C@H](C)N3CC4(COC4)C3)cn2)cc1Nc1cccc(-c2ncn(C)n2)c1OC"
≤ 6.30

// fetch human JAK2 (Homo sapiens (Human), UniProt O60674) pIC50 for CCC(=O)c1cnc(Nc2cnc(OCCNC)cn2)cc1Nc1cccc(-c2ncn(C)n2)c1OC [Compound 18NN]
≤ 6.30

// fetch human JAK2 (Homo sapiens (Human), UniProt O60674) pIC50 for COc1c(-c2ncn(C)n2)ccnc1Nc1cc(Nc2ccc(-c3cn(C)cn3)cn2)ncc1C(=O)C1CC1 [Compound 15L]
≤ 6.30

// fetch human JAK2 (Homo sapiens (Human), UniProt O60674) pIC50 for CCC(=O)c1cnc(Nc2cc(C(C)NC)ncn2)cc1Nc1cccc(-c2ncn(C)n2)c1OC (stereo not drawn)
6.30 to 7.30

// fetch human JAK2 (Homo sapiens (Human), UniProt O60674) pIC50 for CCC(=O)c1cnc(Nc2ccc(OC(C)(C)C(=O)O)c(C)n2)cc1Nc1cccc(-c2ncn(C)n2)c1OC [Compound 18L]
6.30 to 7.30

// fetch human JAK2 (Homo sapiens (Human), UniProt O60674) pIC50 for "CCC(=O)c1cnc(Nc2ccc(CN3C4COCC3C4)cn2)cc1Nc1cccc(-c2ncn(C)n2)c1OC"
6.30 to 7.30

// fetch human JAK2 (Homo sapiens (Human), UniProt O60674) pIC50 for CCC(=O)c1cnc(Nc2ccc(O[C@H]3CCN(C)C3)nn2)cc1Nc1cccc(-c2ncn(C)n2)c1OC [Compound 18GG]
≤ 6.30

// fetch human JAK2 (Homo sapiens (Human), UniProt O60674) pIC50 for CCC(=O)c1cnc(Nc2cnc(OCCO)cn2)cc1Nc1cccc(-c2ncn(C)n2)c1OC [Compound 18P]
≤ 6.30

// fetch human JAK2 (Homo sapiens (Human), UniProt O60674) pIC50 for CCC(=O)c1cnc(Nc2ccc(S(=O)(=O)NC)cn2)cc1Nc1cccc(-c2ncn(C)n2)c1OC [Compound 13C]
≤ 6.30

// fetch human JAK2 (Homo sapiens (Human), UniProt O60674) pIC50 for CCC(=O)c1cnc(Nc2cc(CN(C)C)ncn2)cc1Nc1cccc(-c2ncn(C)n2)c1OC [Compound 17A]
≤ 6.30

// fetch human JAK2 (Homo sapiens (Human), UniProt O60674) pIC50 for CCC(=O)c1cnc(Nc2ccc(-c3cnn(C)c3)cn2)cc1Nc1cccc(-c2ncn(C)n2)c1OC [Compound 15D]
≤ 6.30

* * *

target: TYK2 JH2 domain (Homo sapiens (Human)); assay: TYK2 JH2 NanoBRET assay; assay type: binding; conditions: Table 20, read-out: TYK2 IC50
Kindly supply the reported IC50 values for the records listed here.

Need IC50 of COc1c(Nc2cc(Nc3ccc(-c4cn(C)cn4)cn3)ncc2C(=O)C2CC2)cccc1-c1ncn(C)n1 [Compound 15K] , thanks.
5 to 50 nM

Need IC50 of CCC(=O)c1cnc(Nc2ccn(CC3CCCO3)n2)cc1Nc1cccc(-c2ncn(C)n2)c1OC (stereo not drawn) [Compound 21S] , thanks.
5 to 50 nM

Need IC50 of "CCC(=O)c1cnc(Nc2ccc([C@@H](C)N3CC[C@H](O)C3)cn2)cc1Nc1cccc(-c2ncn(C)n2)c1OC" , thanks.
< 5 nM

Data provenance: patent US20230295119A1
